Test system: RAW-Dual
ASSAY PROTOCOL: IRF Lucia reporter activity, fold change vs agonist alone; higher = enhanced IRF activity
CONDITION NOTES: library stock concentration (final ~1000-fold dilution): 10 mM; cytotoxicity flag (confluency mask): not cytotoxic; agonist: MPLA (TLR4) […]
Whole data set: some 2,900 compounds, median “IRF Lucia reporter activity, fold change vs agonist alone” near 0.9, cut for the highest 2% near 2.8. Many of the other results were omitted from the sample, so the highest values are more common in it than they were.
PARAMETER: IRF Lucia reporter activity
Answer with the value's number alone.

The molecule listed as COC(C(=O)N1Cc2[nH]nc(NC(=O)c3ccc(N4CCN(C)CC4)cc3)c2C1)c1ccccc1 (stereo not given) shows IRF Lucia reporter activity equal to 0.147

The molecule listed as CCC1(O)CC2CN(CCc3c([nH]c4ccccc34)C(C(=O)OC)(c3cc4c(cc3OC)N(C=O)C3C(O)(C(=O)OC)C(OC(C)=O)C5(CC)C=CCN6CCC43C65)C2)C1.O=S(=O)(O)O (stereo not given) shows IRF Lucia reporter activity equal to 1.06

The molecule listed as OCCn1cc(-c2ccc3c(c2)CC/C3=N\O)c(-c2ccncc2)n1 shows IRF Lucia reporter activity equal to 0.784

The molecule listed as COc1cc(F)c(C(C)C)cc1-c1ccc(C(F)(F)F)cc1CN1C(=O)OC(c2cc(C(F)(F)F)cc(C(F)(F)F)c2)C1C (stereo not given) shows IRF Lucia reporter activity equal to 1.1

The molecule listed as CCOC(=O)CCNc1cc(N2CCc3ccccc3CC2)nc(-c2ccccn2)n1.Cl shows IRF Lucia reporter activity equal to 1

The molecule listed as Cc1ccc2c(=O)c3cccc(CC(=O)O)c3oc2c1C shows IRF Lucia reporter activity equal to 0.965

The molecule listed as COc1ccc2cc(-c3[nH]c(-c4ccc(S(C)=O)cc4)nc3-c3ccncc3)ccc2c1 (stereo not given) shows IRF Lucia reporter activity equal to 0.798

The molecule listed as CC(C)OC(=O)C(C)NP(=O)(OCC1OC(n2ccc(=O)[nH]c2=O)C(C)(F)C1O)Oc1ccccc1 (stereo not given) shows IRF Lucia reporter activity equal to 1.04

The molecule listed as COc1ccc2c(OC3CC4C(=O)NC5(C(=O)NS(=O)(=O)C6CC6)CC5/C=C\CCCCN(C)C(=O)C4C3)cc(-c3nc(C(C)C)cs3)nc2c1C (stereo not given) shows IRF Lucia reporter activity equal to 1.05

The molecule listed as CS(=O)(=O)O.Cc1ccc(N(CC2=NCCN2)c2cccc(O)c2)cc1 shows IRF Lucia reporter activity equal to 0.907

* * *

Test system: RAW-Dual
ASSAY PROTOCOL: IRF Lucia reporter activity, fold change vs agonist alone; cytotoxicity flag (confluency mask): not cytotoxic; higher = enhanced IRF activity
CONDITION NOTES: agonist: 3'3'-cGAMP (STING) 10 ug/mL
The full ranking holds about 2,900 compounds; the median of “IRF Lucia reporter activity, fold change vs agonist alone” is about 0.9, and the highest 2% start at about 2.8. For the sample, the highest values were picked, then their nearest neighbours and some compounds at random.
PARAMETER: IRF Lucia reporter activity
Answer with the value's number alone.

The compound listed as CC(C)CC1NC(=O)C(C(C)C)NC(=O)C2CCCN2C(=O)C(CC(=O)O)NC(=O)C(Cc2c[nH]c3ccccc23)NC1=O (stereo not drawn) (library stock concentration (final ~1000-fold dilution): 10 mM) shows IRF Lucia reporter activity equal to 1.23

The compound listed as CN1C(=O)NC(Cc2c[nH]c3c(Cl)cccc23)C1=O (stereo not drawn) (library stock concentration (final ~1000-fold dilution): 10 mM) shows IRF Lucia reporter activity equal to 0.896

The compound listed as O=C1CCC(N2Cc3c(OCc4ccc(CN5CCOCC5)cc4)cccc3C2=O)C(=O)N1 (stereo not drawn) (library stock concentration (final ~1000-fold dilution): 10 mM) shows IRF Lucia reporter activity equal to 1.05
